testedOn: the molecule itself
assayMethodText: dimerization constant of Eu(III)-bound P4a (self-association); called 'measured', method not stated
Where no end group is shown, it is not given here.

protein	Kd
TERRRFDKDGNGYISAAELRHVKIWFQNKRAKIK (also: Eu(III) complex, dimer EuP4a2, The entry describes the monomer; also called EuP4a; EuP4a2 (dimer)) [P4a]	≥ 300 µM
